B1: Azoarcus group I ribozyme (parent)
chain: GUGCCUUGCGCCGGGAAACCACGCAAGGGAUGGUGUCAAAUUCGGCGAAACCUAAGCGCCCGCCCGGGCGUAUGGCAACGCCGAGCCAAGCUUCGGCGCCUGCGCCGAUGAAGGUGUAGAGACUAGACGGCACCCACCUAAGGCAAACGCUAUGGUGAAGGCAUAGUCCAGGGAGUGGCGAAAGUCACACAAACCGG

Variants of: B1
Protocol summary: reverse-splicing fitness (ratio to wild type); higher = more active; in vitro selection; Mg2+ level not given
# reported reverse-splicing fitness; entries follow

Challenge: What value of reverse-splicing fitness has been reported for the following variant? C82G A111C A120G C150U C169U U176C
Response given: 0.0156

Challenge: Try this variant too: A111G A120C A145C C150G U176G
Response given: 0.00421

Challenge: Try this variant too: C82G A111C A120G A145U C150U U176G
Response given: 0.00613

Challenge: Try this variant too: C82G A111G A120G A145U C150U C169A U176A
Response given: 0.0154

Challenge: Try this variant too: A120U A145G C150U C169U
Response given: 0.256
